Assign MIC90 to each entry below.
# Tested on: Staphylococcus aureus Rosenbach (ATCC 25923)
# protocol_description: Antibacterial microbroth dilution MIC/MBC against S. aureus
# Assay type: cell-based
# test_context: Staphylococcus aureus, ATCC25923; S. aureus Rosenbach ATCC 25923; 37 °C, 24 h, OD600; mean ± SD, triplicates; read-out: MIC90 [(μM) mean ± SD]
Only the number, expressed in µM, is required.

Prompt: Sample CNC(=O)CC1NC(=O)c2csc(n2)-c2ccc(-c3nc(C4=NC(C(=O)N5CCCC5C(=O)O)CO4)cs3)nc2-c2csc(n2)-c2csc(n2)C(C(O)c2ccccc2)NC(=O)CNC(=O)c2csc(n2)C(C(C)C)NC(=O)c2nc1sc2C (stereo not shown) [Compound 2, GE2270F2] — what was its MIC90?
Response: 6.94

Prompt: Another compound to look at: CNC(C)C1CCC(N)C(OC2C(N)CC(N)C(OC3OCC(C)(O)C(NC)C3O)C2O)O1 (stereo not shown) [Gentamicin, gentamicin, reference compound]
Response: 0.04

Prompt: Ok, now CNC(=O)C[C@@H]1NC(=O)c2csc(n2)-c2ccc(-c3nc(C(=O)OC)cs3)nc2-c2csc(n2)-c2csc(n2)[C@H]([C@@H](O)c2ccccc2)NC(=O)CNC(=O)c2nc(sc2COC)[C@H](C(C)C)NC(=O)c2nc1sc2C [Compound 8]
Response: 3.17

---

# Tested on: Staphylococcus aureus Rosenbach (ATCC 25923)
# protocol_description: Antibacterial microbroth dilution MIC/MBC against S. aureus
# Assay type: cell-based
# test_context: Staphylococcus aureus, ATCC25923; S. aureus Rosenbach ATCC 25923; 37 °C, 24 h, OD600; mean ± SD, triplicates; read-out: MIC90 [(μM) mean ± SD]
assay_metric: MIC90 (µM)
Just the number in µM, nothing appended.

Prompt: Consider the compound shown here: CNC(=O)CC1NC(=O)c2csc(n2)-c2ccc(-c3nc(C4=NC(C(=O)N5CCCC5C(=O)O)CO4)cs3)nc2-c2csc(n2)-c2csc(n2)C(C(O)c2ccccc2)NC(=O)CNC(=O)c2nc(sc2COC)C(C(C)C)NC(=O)c2nc1sc2C (centres unmarked) [Compound 1, GE2270F1] What is its recorded MIC90?
Response: 2.63

Prompt: Entry to check: CNC(=O)C[C@@H]1NC(=O)c2csc(n2)-c2ccc(-c3nc(C(=O)OC)cs3)nc2-c2csc(n2)-c2csc(n2)[C@H]([C@@H](O)c2ccccc2)NC(=O)CNC(=O)c2csc(n2)[C@H](C(C)C)NC(=O)c2nc1sc2C [Compound 7]
Response: 4.71

---

Exercise: state measured MIC90 for each of the molecules provided.
# System: Staphylococcus aureus Rosenbach (ATCC 25923)
# protocol_description: Antibacterial microbroth dilution MIC/MBC against S. aureus
# Format: cell-based
# test_context: Staphylococcus aureus, ATCC25923; S. aureus Rosenbach ATCC 25923; Figure 5; read-out: MIC (IC90) / minimal inhibitory concentration (MIC90)
Kindly provide the numeric value in µM only, without the unit symbol.

Prompt: Name the reported MIC90 value associated with the molecule CNC(=O)C[C@@H]1NC(=O)c2csc(n2)-c2ccc(-c3nc(C(=O)N[C@@H](CO)C(=O)N4CCC[C@H]4C(N)=O)cs3)nc2-c2csc(n2)-c2csc(n2)[C@H]([C@@H](O)c2ccccc2)NC(=O)CNC(=O)c2nc(sc2COC)[C@H](C(C)C)NC(=O)c2nc1sc2C [Compound 6]
Response: 7.07

Prompt: Same again, this time with CNC(=O)C[C@@H]1NC(=O)c2csc(n2)-c2ccc(-c3nc(C(=O)OC)cs3)nc2-c2csc(n2)-c2csc(n2)[C@H]([C@@H](O)c2ccccc2)NC(=O)CNC(=O)c2csc(n2)[C@H](C(C)C)NC(=O)c2nc1sc2C [Compound 7]
Response: 4.71

Prompt: Also check CNC(=O)CC1NC(=O)c2csc(n2)-c2ccc(-c3nc(C4=NC(C(=O)N5CCCC5C(=O)O)CO4)cs3)nc2-c2csc(n2)-c2csc(n2)C(C(O)c2ccccc2)NC(=O)CNC(=O)c2nc(sc2COC)C(C(C)C)NC(=O)c2nc1sc2C (stereo not shown) [Compound 1, GE2270F1]
Response: 2.63

Prompt: Okay, and CNC(C)C1CCC(N)C(OC2C(N)CC(N)C(OC3OCC(C)(O)C(NC)C3O)C2O)O1 (stereo not shown) [Gentamicin, gentamicin, reference compound] ?
Response: 0.04

Prompt: Record: CNC(=O)C[C@@H]1NC(=O)c2csc(n2)-c2ccc(-c3nc(C(=O)OC)cs3)nc2-c2csc(n2)-c2csc(n2)[C@H]([C@@H](O)c2ccccc2)NC(=O)CNC(=O)c2nc(sc2COC)[C@H](C(C)C)NC(=O)c2nc1sc2C [Compound 8]
Response: 3.17

Prompt: Now try CNC(=O)CC1NC(=O)c2csc(n2)-c2ccc(-c3nc(C4=NC(C(=O)N5CCCC5C(=O)O)CO4)cs3)nc2-c2csc(n2)-c2csc(n2)C(C(O)c2ccccc2)NC(=O)CNC(=O)c2csc(n2)C(C(C)C)NC(=O)c2nc1sc2C (stereo not shown) [Compound 2, GE2270F2] .
Response: 6.94

Prompt: Also need CNC(=O)C[C@@H]1NC(=O)c2csc(n2)-c2ccc(-c3nc(C(=O)O)cs3)nc2-c2csc(n2)-c2csc(n2)[C@H]([C@@H](O)c2ccccc2)NC(=O)CNC(=O)c2nc(sc2COC)[C@H](C(C)C)NC(=O)c2nc1sc2C [Compound 9] , thanks.
Response: 10.3
